- system: human ether-à-go-go-related gene (hERG) potassium channel (human);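 further: peak tail current of the secondary pulse compared with the same well before compound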
- experiment: primary screen, population patch clamp on CHO cells stably expressing hERG; higher = less effect of the substance
Screen size: about 310,000 compounds; about 14,000 (4.5%) showed an effect of 50% or more. Effects have a minus sign here. Only a selection was taken, and strong results are over-represented in it overall.
metric: hERG current change (%, negative = inhibition) at 10uM (%)
Give bare numbers, in %.

>  <molecule>
CCOc1ccc(C2=CSC3=NCCN23)cc1

>  <measured number>
-4.08

$$$$
>  <molecule>
O=c1c2cc(N3CCOCC3)ccc2[nH]c(=S)n1Cc1ccco1

>  <measured number>
-25.1

$$$$
>  <molecule>
COc1ccc(S(=O)(=O)Nc2cc3c4c(c2)CCN4C(=O)CC3)cc1OC

>  <measured number>
-7.56

$$$$

Please state, for each entry, its recorded hERG current change (%, negative = inhibition) at 10uM.
1. COc1cc(N(C)C)c([N+](=O)[O-])cc1C(=O)NC(C)CNc1ccc([N+](=O)[O-])cc1Cl (centres unmarked)
2. O=C(c1ccc(-n2cncn2)c([N+](=O)[O-])c1)N1CCN(S(=O)(=O)c2ccccc2F)CC1
3. CC1(C)CC(=O)C([N+](=O)[O-])=C(NCCCC(=O)O)C1.O
4. O=C(c1ccncc1)N1CCN(S(=O)(=O)c2cccc(F)c2)CC1

1. -2.36
2. -45.1
3. 15
4. 7.6

Can you share its hERG current change (%, negative = inhibition) at 10uM? I mean this molecule: `COc1ccccc1CNc1ncnc2c1cnn2-c1ccccc1`
-12.1

----------
- system: human ether-à-go-go-related gene (hERG) potassium channel (human, UniProt Q12809);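 further: peak tail current of the secondary pulse compared with the same well before compound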
- Sequence (Q12809 whole entry, looked up): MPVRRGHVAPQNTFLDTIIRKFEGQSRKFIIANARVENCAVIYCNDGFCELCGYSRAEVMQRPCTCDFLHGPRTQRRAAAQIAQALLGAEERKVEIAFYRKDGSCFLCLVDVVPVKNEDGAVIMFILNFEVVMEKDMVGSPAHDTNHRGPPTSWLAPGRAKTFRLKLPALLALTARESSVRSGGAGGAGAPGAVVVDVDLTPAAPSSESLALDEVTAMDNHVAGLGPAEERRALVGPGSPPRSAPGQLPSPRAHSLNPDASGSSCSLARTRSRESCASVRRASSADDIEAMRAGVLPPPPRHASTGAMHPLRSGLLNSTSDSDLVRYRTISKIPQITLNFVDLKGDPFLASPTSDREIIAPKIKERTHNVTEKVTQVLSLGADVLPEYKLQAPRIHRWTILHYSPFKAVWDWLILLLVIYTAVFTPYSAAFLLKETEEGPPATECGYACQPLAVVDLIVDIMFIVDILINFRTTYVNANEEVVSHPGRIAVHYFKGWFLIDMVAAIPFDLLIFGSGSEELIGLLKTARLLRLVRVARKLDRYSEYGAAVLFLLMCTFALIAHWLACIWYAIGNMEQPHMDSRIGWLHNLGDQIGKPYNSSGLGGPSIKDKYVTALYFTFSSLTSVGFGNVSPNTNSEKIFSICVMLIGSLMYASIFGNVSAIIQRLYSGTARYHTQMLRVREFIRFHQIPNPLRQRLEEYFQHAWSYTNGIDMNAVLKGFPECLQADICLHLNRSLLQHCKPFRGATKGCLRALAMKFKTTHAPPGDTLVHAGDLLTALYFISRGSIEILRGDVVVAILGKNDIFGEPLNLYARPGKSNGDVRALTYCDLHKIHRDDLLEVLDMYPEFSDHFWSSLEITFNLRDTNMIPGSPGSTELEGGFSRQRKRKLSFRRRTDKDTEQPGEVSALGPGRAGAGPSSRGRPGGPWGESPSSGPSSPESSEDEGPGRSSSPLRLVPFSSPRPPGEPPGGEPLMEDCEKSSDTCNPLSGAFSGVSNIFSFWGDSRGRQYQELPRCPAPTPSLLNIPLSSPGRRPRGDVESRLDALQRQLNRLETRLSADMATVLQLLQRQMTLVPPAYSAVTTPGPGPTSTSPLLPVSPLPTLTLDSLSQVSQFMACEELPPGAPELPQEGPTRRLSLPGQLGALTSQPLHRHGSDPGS
- experiment: primary screen, population patch clamp on CHO cells stably expressing hERG; higher = less effect of the substance
The campaign covered roughly 310,000 compounds. About 14,000 (4.5%) showed an effect of 50% or more. The effect is printed as a negative number. The list comes from a sample in which strong results are over-represented; it also holds close analogues and randomly drawn compounds.
Give measured hERG current change (%, negative = inhibition) at 10uM for each item. Keep answers brief.
One number for each entry, in %.

Recorded results for 4 compounds are shown here.
>  <compound>
CN(C)P1(N(C)C)=Nc2c(c(N)nn2C)C(c2ccccc2)=N1

>  <unit text>
%

>  <measured number>
-6.87

$$$$
>  <compound>
Cc1sc2nc(CSCC(=O)Nc3c(F)cccc3F)[nH]c(=O)c2c1C

>  <unit text>
%

>  <measured number>
7.01

$$$$
>  <compound>
Cn1cnnc1Sc1ccc(C(=O)OCC(=O)NCC(F)(F)F)cc1[N+](=O)[O-]

>  <unit text>
%

>  <measured number>
0.021

$$$$
>  <compound>
CC(=O)c1cn(-c2ccc(Cl)cc2)c(=O)n(Cc2ccc(F)cc2)c1=O

>  <unit text>
%

>  <measured number>
1.04

$$$$

Could you tell me hERG current change (%, negative = inhibition) at 10uM for each of these compounds? They are listed below.
1. COc1ccc(N2C(=O)CC(N3CCN(c4nc5ccccc5s4)CC3)C2=O)cc1 (centres unmarked)
2. CN(C)CCCN(C(=O)c1ccc(S(=O)(=O)N(C)C)cc1)c1nc2ccc(F)cc2s1.Cl

1: -30.9; 2: -32.9

Please give hERG current change (%, negative = inhibition) at 10uM, item by item, for the list that follows.
1. O=S1(=O)CCO[C@H]2Cc3ccccc3[C@H]2N1Cc1cccc(Cl)c1
2. CCN(Cc1ccccc1)S(=O)(=O)c1ccc(C(=O)N(CCCN(C)C)c2nc3cc(OC)ccc3s2)cc1.Cl

[-28.4, -58.3]
